Data credit: patent US20220387466A1

Kindly state Mean z-score for each of the entries shown.
- System: B. uniformis
- Test protocol: Prestwick library screen for microbiome-protective antibiotic antagonists (growth AUC z-scores)
- Assay type: cell-based, Bacteroides uniformis
- Experimental conditions: Doxycycline 0.04 μM + 20 μM drug, z-score of normalized growth AUC, two replicates
Respond with the number and no other words.

Qu. GET /values?readout=Mean z-score&system=B. uniformis&item= Cc1ccc(-c2cc(C(F)(F)F)nn2-c2ccc(S(N)(=O)=O)cc2)cc1
Ans. 3.275

Qu. # repeat for Oc1cc(Cl)ccc1Oc1ccc(Cl)cc1Cl
Ans. 3.066

Qu. # repeat for CCCCc1nc(Cl)c(CO)n1Cc1ccc(-c2ccccc2-c2nn[nH]n2)cc1
Ans. 3.421

Qu. # repeat for O=C(O)Cc1cc(I)c(Oc2ccc(O)c(I)c2)c(I)c1
Ans. 4.333
